Collected pEC50 values appear next to each entry.
Molecular target: UniProtKB P25090
Sequence (P25090 1-351): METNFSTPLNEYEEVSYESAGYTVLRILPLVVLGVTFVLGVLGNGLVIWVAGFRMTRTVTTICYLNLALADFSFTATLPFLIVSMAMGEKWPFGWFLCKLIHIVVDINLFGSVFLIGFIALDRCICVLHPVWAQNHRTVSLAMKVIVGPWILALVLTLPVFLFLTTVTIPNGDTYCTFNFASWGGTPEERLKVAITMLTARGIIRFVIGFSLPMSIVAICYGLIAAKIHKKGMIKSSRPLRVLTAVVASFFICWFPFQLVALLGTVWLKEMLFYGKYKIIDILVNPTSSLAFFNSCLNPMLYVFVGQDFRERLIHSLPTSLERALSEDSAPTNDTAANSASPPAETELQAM
Assay: Change in calcium activity by peptide (Fura-2) in RBL cells overexpressing FPR2
Details: calcium activity (Fura-2), graded per Table 3, read-out: EC50 for [Ca^2+] FPR2
pEC50: −log10 of the molar value. Peptide text beside a SMILES is read from it.

| molecule | pEC50 |
| --- | --- |
| CCCC(=O)N[C@@H](CCSC)C(=O)N[C@@H](CCCNC(=N)N)C(=O)N[C@@H](Cc1ccc(O)cc1)C(=O)N[C@@H](CCCCN)C(=O)N1CCC[C@H]1C(=O)N[C@H](CCSC)C(N)=O [Peptide 56] (HELM PEPTIDE1{[CCCC(=O)[*:2]].M.R.Y.K.P.[dM].[am]}$$$$V2.0) | > 8.00 |

Please find the next molecule below.
Task: Fill in the recorded pEC50 for this molecule, with UniProtKB P25090 as test system: CSCC[C@H](N)C(=O)N[C@@H](CCCNC(=N)N)C(=O)N[C@@H](Cc1ccc(O)cc1)C(=O)N[C@@H](Cc1c[nH]c2ccccc12)C(=O)N1CCC[C@H]1C(=O)N[C@H](CCSC)C(N)=O [Peptide 110] (HELM PEPTIDE1{M.R.Y.W.P.[dM].[am]}$$$$V2.0)
Result: > 8.00

Hello, the source for this data is patent US20250361268A1, in case you need it.
